Molecular target: D(3) dopamine receptor (Homo sapiens) (UniProt P35462)
Sequence (P35462 whole entry, looked up): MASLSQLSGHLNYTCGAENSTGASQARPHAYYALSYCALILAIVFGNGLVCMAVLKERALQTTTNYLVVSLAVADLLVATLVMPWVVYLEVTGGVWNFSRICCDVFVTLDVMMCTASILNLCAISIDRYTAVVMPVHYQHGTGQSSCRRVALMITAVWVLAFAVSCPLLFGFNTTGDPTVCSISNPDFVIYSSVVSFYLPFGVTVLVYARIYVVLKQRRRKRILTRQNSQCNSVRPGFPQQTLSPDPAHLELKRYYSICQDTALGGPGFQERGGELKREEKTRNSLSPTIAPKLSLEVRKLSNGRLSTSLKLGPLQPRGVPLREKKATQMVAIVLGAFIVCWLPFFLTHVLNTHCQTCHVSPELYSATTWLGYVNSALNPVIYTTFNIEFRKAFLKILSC
Assay: qHTS of D3 Dopamine Receptor Antagonist: qHTS; further: on the % scale 0 is the no-effect control and ±100 the full control effect
Details: D3R cells, DiscoveRx beta-arrestin luminescence, antagonist mode; active compounds read low
Out of some 360,000 compounds screened, about 9,100 (2.5%) were called active. About 4% were inconclusive and are not listed. The list comes from a sample in which actives are over-represented; it also holds close analogues and randomly drawn compounds.
Mark each entry 1.0 if its max response, negative = inhibition sits below -10%, and 0.0 for all others.

These recorded examples may help you get a feel for the data.
### Prompt Does the reported max response, negative = inhibition of the following compound sit strictly below -10%? `CCOC(=O)[C@]12CCC=C1N(Cc1ccccc1)C(=O)[C@H](CC(=O)N1CCCC1)C2`
### Response 1.0

### Prompt Does the reported max response, negative = inhibition of the following compound sit strictly below -10%? `Cc1cc(-n2nc(C)cc2C)n2ncc(-c3ccccc3)c2n1`
### Response 0.0

### Prompt Does the reported max response, negative = inhibition of the following compound sit strictly below -10%? O=[N+]([O-])c1ccc(N2CCN(CC(O)COc3ccccc3)CC2)cc1 (centres undefined)
### Response 1.0

### Prompt Does the reported max response, negative = inhibition of the following compound sit strictly below -10%? CCN(CC)CCC(c1cc(OC)c(OC)c(OC)c1)c1c(OC)cc(OC)c2c(-c3ccccc3)cc(=O)oc12 (centres undefined)
### Response 0.0

### Prompt Does the reported max response, negative = inhibition of the following compound sit strictly below -10%? `COc1ccc(C(=O)NCC[N+](C)(C)C)cc1`
### Response 0.0

New cases:
### Prompt Does the reported max response, negative = inhibition of the following compound sit strictly below -10%? `CCCn1c(N)c(C(=O)CSc2nnc(Cc3cccs3)n2C2CC2)c(=O)[nH]c1=O`
### Response 0.0

### Prompt Does the reported max response, negative = inhibition of the following compound sit strictly below -10%? O=C(COC(=O)c1ccc(F)cc1)NCC1COc2ccccc2O1 (centres undefined)
### Response 1.0

### Prompt Does the reported max response, negative = inhibition of the following compound sit strictly below -10%? Cc1cccc(C)c1NC(=O)C(c1ccc(C(F)(F)F)cc1)n1c(=O)c(-c2ccco2)nc2ccccc21 (centres undefined)
### Response 1.0

### Prompt Does the reported max response, negative = inhibition of the following compound sit strictly below -10%? `Nc1ncnc2c1ncn2[C@@H]1O[C@H](C(=O)N2CCSC2)[C@@H](O)[C@H]1O`
### Response 1.0

----------
Target: D(3) dopamine receptor (Homo sapiens) (UniProt P35462)
Test: qHTS of D3 Dopamine Receptor Antagonist: qHTS; further: on the % scale 0 is the no-effect control and ±100 the full control effect
Conditions: D3R cells, DiscoveRx beta-arrestin luminescence, antagonist mode
Hit rate of the full screen: of about 360,000 compounds, about 9,100 (2.5%) were called active. About 4% were inconclusive and are not listed. No stated cut-off is given here; in the data, active means max response below about -50%; inconclusive means no clear call, values can overlap the other calls; inactive means above that. The entries come from a sample that favours actives as a whole.
// one of 1 (active), 0 (inactive), no free text

### Prompt Would you mind telling me which call this test gave `CN(CC(=O)NC1CCN(Cc2ccccc2)CC1)S(=O)(=O)c1ccc(Cl)s1` ?
### Response 1

### Prompt Would you mind telling me which call this test gave `Clc1nc(NC2CCCC2)nc(N2CCOCC2)n1` ?
### Response 0

New cases:
### Prompt Would you mind telling me which call this test gave `CC(=O)NCc1ccc(S(=O)(=O)NC2CCN(Cc3ccccc3)CC2)cc1` ?
### Response 0

----------
Target: D(3) dopamine receptor (Homo sapiens) (UniProt P35462)
Experiment: qHTS of D3 Dopamine Receptor Antagonist: qHTS; further: on the % scale 0 is the no-effect control and ±100 the full control effect
Conditions: D3R cells, DiscoveRx beta-arrestin luminescence, antagonist mode
In all, about 360,000 compounds went through this assay and about 9,100 (2.5%) were called active. Another 4% or so got no clear call; they are omitted. No stated cut-off is given here; in the data, active means max response below about -50%; inconclusive means no clear call, values can overlap the other calls; inactive means above that. The sample as a whole holds a higher share of actives than the screen did.
// one of active, inactive, no free text

These recorded examples may help you get a feel for the data.
### Prompt Would you mind telling me which call this test gave COc1cccc(CC2(CO)CCCN(Cc3ccc(OC(F)F)cc3)C2)c1 (stereo unspecified) ?
### Response inactive

### Prompt Would you mind telling me which call this test gave `Cc1nc2ccc(C(=O)N/N=C/c3ccc(O)cc3)cc2[nH]1` ?
### Response active

### Prompt Would you mind telling me which call this test gave CSCc1nnc(NC(=O)c2ccc(S(=O)(=O)N3CCCCC3C)cc2)o1 (stereo unspecified) ?
### Response inactive

### Prompt Would you mind telling me which call this test gave `O=C(NN=Cc1ccccc1)c1ccccc1` ?
### Response inactive

### Prompt Would you mind telling me which call this test gave `O=Nc1c(O)cc(O)c2ccccc12` ?
### Response inactive

### Prompt Would you mind telling me which call this test gave `OC[C@@H]1CN(Cc2ccc(-c3ccccc3)cc2)C[C@H](n2cnc3c(NC4CCCC4)ncnc32)O1` ?
### Response inactive

### Prompt Would you mind telling me which call this test gave `CN1CCN(c2ccc3c(c2)OC[C@H](Cc2ccccc2)NS3(=O)=O)CC1` ?
### Response inactive

### Prompt Would you mind telling me which call this test gave `Cc1nonc1C(=O)N/N=C/c1ccc(O)cc1` ?
### Response inactive

### Prompt Would you mind telling me which call this test gave `CCOC(=O)C1=CC[C@@H](c2ccccc2)N(S(=O)(=O)c2ccc(C)cc2)[C@H]1c1ccc(CC)cc1` ?
### Response inactive

### Prompt Would you mind telling me which call this test gave `O=C(N/N=C/c1cc(Br)c(O)c([N+](=O)[O-])c1)C(O)(c1ccccc1)c1ccccc1` ?
### Response inactive

New cases:
### Prompt Would you mind telling me which call this test gave `Cc1ccc(S(=O)(=O)NC(=O)N2CCCC(C)(C)C2)cc1` ?
### Response inactive

### Prompt Would you mind telling me which call this test gave `CC(=O)N1CCN(CC(C)(C)NS(=O)(=O)c2ccc(C)cc2)CC1` ?
### Response inactive

### Prompt Would you mind telling me which call this test gave `O=C(Cc1ccccc1)N/N=C/c1ccc(Cl)cc1Cl` ?
### Response inactive

### Prompt Would you mind telling me which call this test gave COc1cccc(CC2(CO)CCCN(CC3=Cc4cc(OC)ccc4OC3)C2)c1 (stereo unspecified) ?
### Response inactive

### Prompt Would you mind telling me which call this test gave CC1CCCCN1S(=O)(=O)c1ccc(S(=O)(=O)N(CC(=O)Nc2ccccc2)Cc2cccs2)cc1 (stereo unspecified) ?
### Response inactive

### Prompt Would you mind telling me which call this test gave `CCCCNC(=O)c1nc(C2CCN(S(=O)(=O)c3ccc(F)c(F)c3)CC2)oc1-c1cccc(C(F)(F)F)c1` ?
### Response inactive

----------
Target: D(3) dopamine receptor (Homo sapiens)
Assay: qHTS of D3 Dopamine Receptor Antagonist: qHTS; further: on the % scale 0 is the no-effect control and ±100 the full control effect
Conditions: D3R cells, DiscoveRx beta-arrestin luminescence, antagonist mode; active compounds read low
Hit rate of the full screen: of about 360,000 compounds, about 9,100 (2.5%) were called active. Another 4% or so got no clear call; they are omitted. Only a selection was taken, and actives are over-represented in it overall.
Range-based classes on measured max response, negative = inhibition: class A (below -10%), class B (-10% to below 10%), class C (10% or more)

These recorded examples may help you get a feel for the data.
### Prompt Each molecule maps to one class by max response, negative = inhibition. Which class for `CCOC(=O)CNC(=O)CSc1nnc(COc2ccc(Cl)cc2)n1CC` ?
### Response class A

### Prompt Each molecule maps to one class by max response, negative = inhibition. Which class for `CS/C(=C\C(=O)c1ccco1)Nc1ccccc1Cl` ?
### Response class B

Next item in the queue.
### Prompt Each molecule maps to one class by max response, negative = inhibition. Which class for `O=C(c1ccc(Br)o1)N1CCN(CCOc2ccccc2)CC1` ?
### Response class C

----------
Below, each entry is listed with its recorded max response, negative = inhibition.
Biological target: D(3) dopamine receptor (Homo sapiens) (UniProt P35462)
Test: qHTS of D3 Dopamine Receptor Antagonist: qHTS; further: on the % scale 0 is the no-effect control and ±100 the full control effect
Settings: D3R cells, DiscoveRx beta-arrestin luminescence, antagonist mode; active compounds read low
About 9,100 (2.5%) of roughly 360,000 compounds were called active. Inconclusive results (about 4%) are left out. The sample as a whole holds a higher share of actives than the screen did.
Write the answer as a number in %, unit excluded.

### Prompt Requested field: max response, negative = inhibition. Item: CCOc1ccc(NS(=O)(=O)c2ccc(C(=O)NCC(c3ccccc3OC)N3CCCC3)cc2)cc1 (stereo not given)
### Response -13.6

### Prompt Requested field: max response, negative = inhibition. Item: COc1ccc(C(CNC(=O)COc2ccccc2OC)N2CCCCC2)cc1 (stereo not given)
### Response -53.8

### Prompt Requested field: max response, negative = inhibition. Item: `Cc1ccc(NC(=O)N2CCSc3ccccc32)cc1`
### Response -50.5

New cases:
### Prompt Requested field: max response, negative = inhibition. Item: CC(Nc1nc(N2CCOCC2)nc2ccccc12)c1ccccc1 (stereo not given)
### Response -1.04
